Tested on: human hepG2 cells
Test: In vitro toxicity in human hepG2 cells (AlamarBlue viability)
Type: cell-based
Details: human hepG2 cells, 24 hours, AlamarBlue; 8 replicates; read-out: IC50
Description: For viability assays, cells were seeded in white 96-well Nunclon plates at a density of 20,000 cells/well and left overnight to adhere before experiments were conducted. Zn chelators dissolved in DMSO were added to white 96-well plates containing 20000 HepG2 cells/well at concentrations ranging from 1 to 1×10^−6 mM (max DMSO concentration never exceeded 1%) and incubated for 24 hours at 37° C. […]
Binary call on IC50 with cut-off 100 µM: strictly below means met, and equality or higher means not met.

Please review the following examples before continuing.
• OCc1ccc(CN(Cc2ccccn2)Cc2ccccn2)nc1 [Example 14] = met
• c1ccc(CN(CCN(Cc2ccccn2)Cc2ccccn2)Cc2ccccn2)nc1 [TPEN, reference compound] = met
• CN(C[C@H](O)[C@@H](O)[C@H](O)[C@H](O)CO)C(=O)Cc1ccc(NC(=O)CN(CCN(Cc2ccccn2)Cc2ccccn2)Cc2ccccn2)cc1 [Example 25] = not met
• OC[C@H]1OC(O)[C@H](n2cc(CN(Cc3ccccn3)Cc3ccccn3)nn2)[C@@H](O)[C@@H]1O (stereo partly drawn) [Example 84] = not met
• O=C(NC[C@@H](O)CO)c1ccc(CN(Cc2ccccn2)Cc2ccccn2)nc1 [Example 97] = not met

Problem: Dear colleague, could you confirm whether IC50 of O=C(Cc1ccc(NC(=O)c2ccc(CN(Cc3ccccn3)Cc3ccccn3)nc2)cc1)NC(CO)(CO)CO [Example 100] falls below 100 µM? Thanks.
Solution: not met

Problem: Quick check: IC50 of CN(C[C@H](O)[C@@H](O)[C@H](O)[C@H](O)CO)C(=O)Cc1ccc(-n2cc(CN(Cc3ccccn3)Cc3ccccn3)nn2)cc1 [Example 96] under 100 µM?
Solution: not met

Problem: Given OC1O[C@H](Cn2cc(CN(CCN(Cc3ccccn3)Cc3ccccn3)Cc3ccccn3)nn2)[C@H](O)[C@H](O)[C@H]1O (stereo partly drawn) [Example 91] , is recorded IC50 strictly lower than 100 µM?
Solution: not met

Problem: is_below(IC50, 100 µM) for O=C(CNCCc1ccc(NC(=O)CN(CCN(Cc2ccccn2)Cc2ccccn2)Cc2ccccn2)cc1)NCC(O)CO (stereo not drawn) [Example 108] ?
Solution: not met

Problem: Criterion: IC50 strictly below 100 µM. Is it met by O=C(NC(CO)(CO)CO)c1ccc(CN(Cc2ccccn2)Cc2ccccn2)nc1 [Example 103] ?
Solution: met

Problem: hey, is IC50 for CN(C[C@H](O)[C@@H](O)[C@H](O)[C@H](O)CO)C(=O)Cc1ccc(NC(=O)c2ccc(CN(Cc3ccccn3)Cc3ccccn3)nc2)cc1 [Example 99] lower than 100 µM or not?
Solution: not met

Problem: Below 100 µM on IC50? Entry O=C(O)CNC(=O)CNC(=O)c1ccc(CN(Cc2ccccn2)Cc2ccccn2)nc1 [Example 109]
Solution: not met

----------
tested on: human hepG2 cells; assay: In vitro toxicity in human hepG2 cells (AlamarBlue viability); type: cell-based; settings: estimated values (footnote c); read-out: IC50h
property_name: pIC50
# reply with the number alone; pIC50 is -log10 of concentration in mol/L

Notebook: O=C(O)CN1CCN(CC(=O)O)CCN([C@H](CO)[C@H](O)CO)CCN(CC(=O)O)CC1 [Butrol, reference compound] , pIC50 read as 4.22
